# Target: GST-ER-α –LBD (Homo sapiens, UniProt P03372)
# Sequence (P03372 311-547 limits assumed): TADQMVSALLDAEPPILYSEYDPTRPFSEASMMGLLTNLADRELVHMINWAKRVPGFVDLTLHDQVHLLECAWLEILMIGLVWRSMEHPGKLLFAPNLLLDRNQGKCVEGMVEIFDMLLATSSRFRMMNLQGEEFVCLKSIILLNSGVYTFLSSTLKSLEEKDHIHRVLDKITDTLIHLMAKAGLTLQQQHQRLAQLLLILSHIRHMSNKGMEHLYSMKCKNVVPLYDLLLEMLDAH
# Test Protocol: Competitive binding assay using [3H]E2
# Study Conditions: ratio of IC50 values, ER-α over ERR-γ
Measure Name: ERR-γ receptor selectivity ER-α (IC50, nM)/ERR-γ (IC50, nM)

compound="CC(c1ccc(O)cc1)c1ccc(O)cc1 [Bisphenol E, 2,2-bis(4-hydroxyphenyl)ethane]" target="GST-ER-α –LBD (Homo sapiens, UniProt P03372)" measurement="Exclusively ERR-γ"
compound="Oc1ccc(Cc2ccc(O)cc2)cc1 [Bisphenol F, bis(4-hydroxyphenyl)methane]" target="GST-ER-α –LBD (Homo sapiens, UniProt P03372)" measurement="Exclusively ERR-γ"
compound=CCC(C)(C)c1ccc(O)cc1 target="GST-ER-α –LBD (Homo sapiens, UniProt P03372)" measurement="Exclusively ERR-γ"

---

# Target: GST-ERR-γ –LBD (human ERR-γ) (Homo sapiens, UniProt P62508)
# Construct: made in house; host or cells: Escherichia coli BL21α (vector pGEX6P-1)
# Sequence (P62508 233-457 limits assumed): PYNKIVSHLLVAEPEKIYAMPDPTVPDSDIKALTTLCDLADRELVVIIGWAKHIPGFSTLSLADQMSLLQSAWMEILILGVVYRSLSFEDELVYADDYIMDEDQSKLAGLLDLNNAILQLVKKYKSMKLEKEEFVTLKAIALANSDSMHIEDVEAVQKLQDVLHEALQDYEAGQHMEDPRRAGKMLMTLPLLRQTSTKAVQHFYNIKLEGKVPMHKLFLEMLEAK
# Test Protocol: Competitive receptor binding assay using [3H]BPA as tracer
# Study Conditions: read-out: Binding affinity for ERR-γ (IC50)
pIC50: −log10 of the molar value.
Kindly return 1 if reported pIC50 is no lower than 7; return -1 if it is lower.

These recorded examples may help you get a feel for the data.
compound=CCc1ccc(O)cc1 qualitative_label=-1
compound=Oc1ccc(C(c2ccc(O)cc2)(C(F)(F)F)C(F)(F)F)cc1 qualitative_label=-1
compound="CC(c1ccc(O)cc1)c1ccc(O)cc1 [Bisphenol E, 2,2-bis(4-hydroxyphenyl)ethane]" qualitative_label=1
compound="CCC(C)(c1ccc(O)cc1)c1ccc(O)cc1 [Bisphenol B, 2,2-bis(4-hydroxyphenyl)butane]" qualitative_label=1

API: the following record is the query input.
Q) Please tell me: is the compound CCC(C)(C)c1ccc(O)cc1 at or over 7 in terms of pIC50?
A) 1
